For each record, write down the corresponding growth.
tested on: OVCAR-5 ovarian; test: NCI-60 one-dose screen, 48 h (100 = growth as untreated, 0 = no growth, -100 = all killed); details: 10 µM unless noted
The panel holds about 83,000 compounds, 20% with a hit somewhere; the sample as a whole holds those more often.
Respond with the bare value in %.

Sample "COc1cc(NC(=O)c2cc(O)c(CC=C(C)C)c(O)c2)cc2c1O[C@]1(C)CC[C@@H](O)C(C)(C)[C@H]1C2" ; growth observed: 61.8

Just so you know, measured growth for "CC(C)(O)c1cccc(F)c1" came out at 99.3

Recorded result, "Clc1ccc2c(NCCCN3CCN(c4nc(N5CCOCC5)nc5ccccc45)CC3)ccnc2c1" , growth: 60.6

growth measured on "CNC(=O)c1cc(Oc2ccc3nc(NC(=O)Nc4cc(C(F)(F)F)cc(C(F)(F)F)c4)sc3c2)ccn1" = -26.1

// field: growth; key: "NC(=O)c1c(NC(=O)c2ccc(C(F)(F)F)cc2Cl)sc2c1CCC(=O)C2" ; value = -41.9

The measured growth associated with "CN=C1C=CC(=C(c2ccc(N(C)C)cc2)c2ccc(N(C)C)cc2)C=C1" reads 17.4

Value of measured growth for the entry "CSc1ccc(Cl)c(C(=O)Nc2sccc2C(N)=O)c1" : 98.2

get_value(item= "Cc1nc(C)c(-c2nn3c(-c4cccc(F)c4)nnc3s2)s1" , readout=growth) returns 112

get_value(item= "CN1CCN(C(=O)[C@@]2(C)CC[C@]3(C)CC[C@]4(C)C(=CC[C@@H]5[C@@]6(C)C/C(=C/c7ccncc7)C(=O)C(C)(C)[C@@H]6CC[C@]54C)[C@@H]3C2)CC1" , readout=growth) returns 88.2
